Test: Mammalian cell cytotoxicity (alamarBlue for 5A; PI/Hoechst HCIA for 5D, 5E) in IPΦ
Details: BALB/c, mouse, intraperitoneal mouse macrophages (IPΦ)
Measure Name: CC50 at 48 h (µM)
Answer format: numeric, µM implied, no suffix.

CCOC(=O)c1c(NC(=O)c2cccc(C(F)(F)F)c2F)sc2c1CC(C)(C)NC2(C)C    27.9

# next compound below
Q: Reported CC50 at 48 h for CCOC(=O)c1c(NC(=O)c2ccc(F)c(C(F)(F)F)c2)sc2c1CC(C)(C)NC2(C)C : what is it?
Result: 16.6

* * *

Test system: L. major-luc promastigotes
Assay: Luciferase assay, viability of L. major-luc promastigotes
Assay type: cell-based, Leishmania major
Details: Leishmania major, 72 h, 72 h at 28 °C, 2 × 10^6 promastigotes per mL, luciferase activity
pEC50: −log10 of the molar value.
Measure Name: pEC50

Take a look at these entries with their results.
CC1(C)Cc2c(sc(NC(=O)c3cc(Cl)ccc3C(F)(F)F)c2C(=O)O)C(C)(C)N1 [Compound 5F]    < 4.90
CCOC(=O)c1c(NC(=O)c2ccc(C(F)(F)F)cc2)sc2c1CC(C)(C)NC2(C)C [Compound 5A]    ~6.47

We next turn to a different compound, shown below.
Q: // lookup pEC50 for CC1(C)Cc2c(sc(NC(=O)c3ccccc3C(F)(F)F)c2C(=O)O)C(C)(C)N1 [Compound 5G]
Result: < 4.90
